- target-desc: T1, human PD-L1 (Acro, Catalog Number: H5229) (human, UniProt Q9NZQ7 19-238)
- T1 construct: Soluble antigen in the BLI assay; also called antigen
- T1 sequence (Q9NZQ7 19-238 limits assumed): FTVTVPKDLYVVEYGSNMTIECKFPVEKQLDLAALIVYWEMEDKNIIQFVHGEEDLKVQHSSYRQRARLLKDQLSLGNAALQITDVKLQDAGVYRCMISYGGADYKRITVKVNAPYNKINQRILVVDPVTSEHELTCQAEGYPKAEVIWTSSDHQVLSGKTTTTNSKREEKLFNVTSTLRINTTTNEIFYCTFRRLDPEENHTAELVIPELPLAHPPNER
- measurement-notes: BLI, Octet RED96e, antibody on AHC sensor, antigen 100 nM, 1:1 fit
measured-metric: kon (M⁻¹ s⁻¹)
The reply should be a number in M⁻¹ s⁻¹, with the unit left off.

binder	readout-value
1910G2HzL4H4 (antibody, V domains shown, Only the variable domains are tied to the name; Full chains are not tied to the name; also called humanized antibody 1910G2HzL4H4; 1910G2HzL4 + 1910G2HzH4) VH: EVQLVESGGGLVQPGGSLRLSCAASGFTFSNFWMTWVRQAPGKGLEWVASITHSGGITYYPDSVKGRFTISRDDSKNTLYLQMNSLRAEDTAVYYCSRDPTEAPFDYWGQGTLVTVSS VL: DIQMTQSPSSLSASVGDRVTITCQASQNINNYIAWYQQKPGKAPKQLIRYTSTLVSGVPSRFSGSGSGKDYTFTISSLQPEDIATYYCLQYDNVPNTFGQGTKLEIK	1.03e+06
1910G2HzL7H7 (antibody, V domains shown, Only the variable domains are tied to the name; Full chains are not tied to the name; also called humanized antibody 1910G2HzL7H7; 1910G2HzL7 + 1910G2HzH7) VH: EVQLVESGGGLVQPGGSLRLSCAASGFTFSNFWMTWVRQAPGKGLEWVASITHSGGITYYADSVKGRFTISRDDSKSTLYLQMNSLRAEDTAVYYCSRDPTEAPFDYWGQGTLVTVSS VL: DIQMTQSPSSLSASVGDRVTITCQASQNINNYIAWYQQKPGKAPKQLIRYTSTLVSGVPSRFSGSGSGKDYTFTISSLQPEDIATYYCLQYDNVPNTFGQGTKLEIK	958000

Now look at this one.
Ask: Need kon, item 1910G2HzL3H3 (antibody, V domains shown, Only the variable domains are tied to the name; Full chains are not tied to the name; also called humanized antibody 1910G2HzL3H3; 1910G2HzL3 + 1910G2HzH3) VH: EVQLVESGGGLVQPGGSLRLSCAASGFTFSNFWMSWVRQAPGKGLEWVASITHSGGITYYVDSVKGRFTISRDNAKSSLYLQMNSLRAEDTAVYYCSRDPTEAPFDYWGQGVMVTVSS VL: DIQMTQSPSSLSASVGDRVTITCQASQNINNYIAWYQQKPGKAPKQLIRYTSTLVSGTPSRFSGSGSGKDYTFTISNLQPEDIATYYCLQYDNVPNTFGQGTKLEIK
Result: 1.06e+06
